Hey, just so you know, these numbers are from patent EP0407583A1.

# Inhibition of growth of phytopathogenic fungi colonies, % Rhoma betae test laboratory per entry
test system: Rhoma betae; experiment: Inhibition of phytopathogenic fungi growth, laboratory test on potato-dextrose agar; assay type: cell-based; conditions: active principle 0.01 % by mass in potato-dextrose agar
Give a bare numeral; the unit % is implied.

Here are 2 compounds together with their reported answers.
COP(=O)(NC(=O)C(Cl)(Cl)CCl)Nc1ccccc1 (stereo not drawn) ... 67
O=C(NP(=O)(NC(CO)C(O)c1ccc([N+](=O)[O-])cc1)NC(CO)C(O)c1ccc([N+](=O)[O-])cc1)c1ccc(Cl)cc1 (stereo not drawn) ... 64

// below: Inhibition of growth of phytopathogenic fungi colonies, % Rhoma betae test laboratory requested for another compound
[Q] State the recorded Inhibition of growth of phytopathogenic fungi colonies, % Rhoma betae test laboratory for this entry: O=C(NP(=O)(Nc1ccc(Cl)cc1[N+](=O)[O-])Nc1ccc(Cl)cc1[N+](=O)[O-])c1ccc(Cl)cc1
[A] 68

* * *

tested on: domestic flies; assay: Insecticidal activity on flies, large-scale test in living and production premises; assay type: in vivo; settings: 0.1% aqueous solution with 5% glucose, 2-3 dishes per 20 m^2, living and production premises; 72 hours
Class MET: Death of flies, % tests large-scale at least 90%. Class NOT MET: Death of flies, % tests large-scale below 90%.

Some solved cases for reference:
O=C(CCl)NP(=O)(NCc1ccccc1)NCc1ccccc1 ... MET
O=C(NP(=O)(Nc1cccc(Cl)c1)Nc1cccc(Cl)c1)c1ccc(Cl)cc1 ... NOT MET
CCOP(=O)(NC(=O)c1ccc(Cl)c([N+](=O)[O-])c1)OCC ... MET

[Q] Quick check, Death of flies, % tests large-scale >= 90%? COP(=O)(NC(=O)c1ccc(Cl)c([N+](=O)[O-])c1)OC
[A] NOT MET

[Q] Can you handle O=C(NP(=O)(Nc1ccc(Cl)cc1Cl)Nc1ccc(Cl)cc1Cl)c1ccc(Br)cc1 next?
[A] MET

[Q] Param item: O=C(NP(=O)(Nc1ccccc1Cl)Nc1ccccc1Cl)c1ccc(Br)cc1
[A] MET

[Q] Would you mind doing O=C(NP(=O)(Nc1ccccc1)Nc1ccccc1)c1ccc(Br)cc1 as well?
[A] MET

* * *

test system: Fusarium moniliforme; assay: Inhibition of phytopathogenic fungi, field test on affected potato plants; type: in vivo; settings: 5 m^2 plots of affected potato plants sprayed
EXPERIMENTAL_READOUT: Inhibition of growth of phytopathogenic fungi colonies, % Fusatium monili-forme test field

For orientation, consider the following solved cases.
O=C(NP(=O)(Nc1ccc(Cl)cc1[N+](=O)[O-])Nc1ccc(Cl)cc1[N+](=O)[O-])c1ccc(Cl)cc1 ... 55%
COP(=O)(NC(=O)C(Cl)(Cl)CCl)Nc1ccccc1 (stereo not shown) ... 38%
O=C1C(Cl)=C(Cl)C(=O)c2ccccc21 [2,3-dichloro--1,4-naphtho-quinone, 2,3-dichloro-1,4-naphthoquinone, reference compound] ... 54%
O=C(NP(=O)(NC(CO)C(O)c1ccc([N+](=O)[O-])cc1)NC(CO)C(O)c1ccc([N+](=O)[O-])cc1)c1ccc(Cl)cc1 (stereo not shown) ... 56%
O=C(NP(=O)(Nc1ccc(Br)cc1)Nc1ccc(Br)cc1)c1ccc(Br)cc1 ... 99%

[Q] Quick one: Inhibition of growth of phytopathogenic fungi colonies, % Fusatium monili-forme test field of O=C(NP(=O)(Nc1ccc(Cl)cc1Cl)Nc1ccc(Cl)cc1Cl)c1ccc(Br)cc1 ?
[A] 74%

[Q] Also check O=C(NP(=O)(Nc1ccc(Cl)cc1[N+](=O)[O-])Nc1ccc(Cl)cc1[N+](=O)[O-])c1ccc(Br)cc1
[A] 73%

* * *

system: Diplodia zeae; assay: Inhibition of phytopathogenic fungi growth, laboratory test on potato-dextrose agar; format: cell-based; details: active principle 0.01 % by mass in potato-dextrose agar
// reported Inhibition of growth of phytopathogenic fungi colonies, % Diplodia zeae test laboratory per item
Response body: numeric value in %, unit text excluded.

O=C(NP(=O)(Nc1ccc(Cl)cc1Cl)Nc1ccc(Cl)cc1Cl)c1ccc(Br)cc1 [Example 13] ... 100
COP(=O)(NC(=O)C(Cl)(Cl)CCl)Nc1ccccc1 (stereo not drawn) [Example 11] ... 100

Next item in the queue.
[Q] Entry O=C(NP(=O)(Nc1ccc(Br)cc1)Nc1ccc(Br)cc1)c1ccc(Br)cc1 [Example 15] has what Inhibition of growth of phytopathogenic fungi colonies, % Diplodia zeae test laboratory?
[A] 100

* * *

test system: Alternaria sobani; assay: Inhibition of phytopathogenic fungi, field test on affected potato plants; type: in vivo; details: 5 m^2 plots of affected potato plants sprayed
Entries and their measured Inhibition of growth of phytopathogenic fungi colonies, % Alternaria sobani test field follow.
The reply should be a number in %, with the unit left off.

O=C(NP(=O)(Nc1ccc(Cl)cc1[N+](=O)[O-])Nc1ccc(Cl)cc1[N+](=O)[O-])c1ccc(Cl)cc1 [Example 14] ... 93
O=C(NP(=O)(NC(CO)C(O)c1ccc([N+](=O)[O-])cc1)NC(CO)C(O)c1ccc([N+](=O)[O-])cc1)c1ccc(Cl)cc1 (stereo not drawn) [Example 12] ... 46
O=C(NP(=O)(Nc1ccc(Cl)cc1[N+](=O)[O-])Nc1ccc(Cl)cc1[N+](=O)[O-])c1ccc(Br)cc1 [Example 16] ... 98
O=C(NP(=O)(Nc1ccc(Br)cc1)Nc1ccc(Br)cc1)c1ccc(Br)cc1 [Example 15] ... 98

[Q] Give Inhibition of growth of phytopathogenic fungi colonies, % Alternaria sobani test field (Alternaria sobani) of the following compound: COP(=O)(NC(=O)C(Cl)(Cl)CCl)Nc1ccccc1 (stereo not drawn) [Example 11]
[A] 66

[Q] For O=C(NP(=O)(Nc1ccc(Cl)cc1Cl)Nc1ccc(Cl)cc1Cl)c1ccc(Br)cc1 [Example 13] then?
[A] 100

* * *

test system: domestic flies; assay: Insecticidal activity on domestic flies, laboratory test (gauze boxes); format: in vivo; settings: 0.1% solution in 5% aqueous glucose solution; 50 flies per box; count in 72 hours
Define the label as TRUE when Death of flies, % tests laboratory is strictly less than 90% and as FALSE in all remaining cases.

O=C(CCl)NP(=O)(NCc1ccccc1)NCc1ccccc1 ... FALSE
O=C(NP(=O)(Nc1ccccc1Cl)Nc1ccccc1Cl)c1ccc(Br)cc1 ... FALSE
O=C(NP(=O)(Nc1cccc(Cl)c1)Nc1cccc(Cl)c1)c1ccc(Cl)cc1 ... TRUE
O=C(NP(=O)(Nc1ccc(Cl)cc1Cl)Nc1ccc(Cl)cc1Cl)c1ccc(Br)cc1 ... FALSE

[Q] Lab note: Death of flies, % tests laboratory threshold 90%. Does this compound come in strictly under it? COP(=O)(NC(=O)c1ccc(Cl)c([N+](=O)[O-])c1)OC
[A] TRUE

[Q] // next record CCOP(=O)(NC(=O)c1ccc(Cl)c([N+](=O)[O-])c1)OCC
[A] FALSE

[Q] What about this compound? O=C(NP(=O)(Nc1ccccc1)Nc1ccccc1)c1ccc(Br)cc1
[A] FALSE

* * *

Tested on: Diplodia zeae
Assay: Inhibition of phytopathogenic fungi growth, laboratory test on potato-dextrose agar
Format: cell-based
Details: active principle 0.01 % by mass in potato-dextrose agar
Experimental: A fungicidal composition based on this compound was prepared in the form of a 0.01% solution thereof in distilled water. […]
Listing of recorded Inhibition of growth of phytopathogenic fungi colonies, % Diplodia zeae test laboratory by entry.
Provide only the numeric value, understood in %.

Observe how each entry below is paired with its result.
O=C(NP(=O)(Nc1ccc(Cl)cc1[N+](=O)[O-])Nc1ccc(Cl)cc1[N+](=O)[O-])c1ccc(Br)cc1 [Example 16] ... 100
O=C(NP(=O)(NC(CO)C(O)c1ccc([N+](=O)[O-])cc1)NC(CO)C(O)c1ccc([N+](=O)[O-])cc1)c1ccc(Cl)cc1 (stereo not drawn) [Example 12] ... 100

Next item in the queue.
[Q] // fetch Diplodia zeae Inhibition of growth of phytopathogenic fungi colonies, % Diplodia zeae test laboratory for O=C(NP(=O)(Nc1ccc(Cl)cc1[N+](=O)[O-])Nc1ccc(Cl)cc1[N+](=O)[O-])c1ccc(Cl)cc1 [Example 14]
[A] 100

* * *

test system: Venturia inaequalis; test: Inhibition of phytopathogenic fungi, field test on affected potato plants; assay type: in vivo; conditions: 5 m^2 plots of affected potato plants sprayed
Please note: rule met applies when Inhibition of growth of phytopathogenic fungi colonies, % Venturia inaequalis test field is 50% or greater, and rule not met applies otherwise.

O=C(NP(=O)(NC(CO)C(O)c1ccc([N+](=O)[O-])cc1)NC(CO)C(O)c1ccc([N+](=O)[O-])cc1)c1ccc(Cl)cc1 (stereo not shown) [Example 12] ... rule met

Shift focus to the following entry.
[Q] In plain terms: is recorded Inhibition of growth of phytopathogenic fungi colonies, % Venturia inaequalis test field at least 50% for O=C(NP(=O)(Nc1ccc(Cl)cc1[N+](=O)[O-])Nc1ccc(Cl)cc1[N+](=O)[O-])c1ccc(Br)cc1 [Example 16] ?
[A] rule met

* * *

system: Fusarium culmorum; assay: Inhibition of phytopathogenic fungi, field test on affected potato plants; type: in vivo; details: 5 m^2 plots of affected potato plants sprayed
EXPERIMENTAL_READOUT: Inhibition of growth of phytopathogenic fungi colonies, % Fusarium culmorum Tests field
Value and unit, in that order.

[Q] Record request: Inhibition of growth of phytopathogenic fungi colonies, % Fusarium culmorum Tests field value, item COP(=O)(NC(=O)C(Cl)(Cl)CCl)Nc1ccccc1 (stereo not shown)
[A] 98%

[Q] Likewise for O=C(NP(=O)(Nc1ccc(Cl)cc1[N+](=O)[O-])Nc1ccc(Cl)cc1[N+](=O)[O-])c1ccc(Cl)cc1 ?
[A] 100%
